# MRC5 IC50 values compiled below
target: Recombinant human IL-1β (BioLegend 579404) (human, UniProt P01584 117-269); assay: cell-based or functional assay
Starred links: 1 amine or outer side, 2 acyl side, 3 side chain; linkers in the order of their positions; H or OH if unused. Non-standard residues stand in square brackets, D forms with d. No end group written: not given here. dProc3CH24Pal = (2R,3S)-3-(4-pyridylmethyl)pyrrolidine-2-carboxylic acid, O=C([C@H]1[C@@H](Cc2ccncc2)CCN1[*:1])[*:2]; Phe(4-(5-CO2H-2-pyrimidyl)) = N[C@@H](Cc1ccc(-c2ncc(C(=O)O)cn2)cc1)C(=O)O; dPro(4R-(4-pyridylmethyl)) = O=C(O)[C@H]1C[C@@H](Cc2ccncc2)CN1; Trp(βS-Me,4-F) = C[C@@H](c1c[nH]c2cccc(F)c12)[C@H](N)C(=O)O; Bip(4'-COOH) = N[C@@H](Cc1ccc(-c2ccc(C(=O)O)cc2)cc1)C(=O)O; Ala(1-bicyclo(1.1.1)pentyl) = N[C@@H](CC12CC(C1)C2)C(=O)O; dPro(4R-Bzl(4-F)) = O=C(O)[C@H]1C[C@@H](Cc2ccc(F)cc2)CN1; Ala(morpholin-4-yl) = N[C@@H](CN1CCOCC1)C(=O)O; Ala(pyrimidin-5-yl) = N[C@@H](Cc1cncnc1)C(=O)O; Phe(4-COOH) = N[C@@H](Cc1ccc(C(=O)O)cc1)C(=O)O; Pro(cis-4-F) = O=C(O)[C@@H]1C[C@H](F)CN1; Ala(4-THP) = N[C@@H](CC1CCOCC1)C(=O)O; cisHyp = O=C(O)[C@@H]1C[C@H](O)CN1; d(αMeD) = C[C@@](N)(CC(=O)O)C(=O)O; aIle = CC[C@@H](C)[C@H](N)C(=O)O; 4Pal = N[C@@H](Cc1ccncc1)C(=O)O; αMeD = C[C@](N)(CC(=O)O)C(=O)O; NMeDab = CN[C@@H](CCN)C(=O)O; αMeK = C[C@](N)(CCCCN)C(=O)O; Dab = NCC[C@H](N)C(=O)O; Aib = CC(C)(N)C(=O)O; Sar = CNCC(=O)O
Reply with just the number (in pM).

Below are worked cases with known answers.
>  <Binder>
cyclo([Bip(4'-COOH)][4Pal][Phe(4-COOH)]G[Pro(cis-4-F)][Trp(βS-Me,4-F)][Aib]SW[αMeD][Ala(4-THP)]Q[Dab][Sar][dPro(4R-(4-pyridylmethyl))]) (ring closure inferred; not fully specified (bridges); printed as Bip4CO2H-4Pal-Phe4COOH-G-Proc4F-SbMeW4F-Aib-S-W-aMeD-AlaTHP4-Q-Dab-Sar-dProc4CH24Pal, cyclic (macrolactam)) [SEQ ID NO: 208]

>  <Units of measure>
pM

>  <MRC5 IC50>
15

$$$$
>  <Binder>
[Bip(4'-COOH)][4Pal][Phe(4-COOH)]G[Pro(cis-4-F)][Trp(βS-Me,4-F)][Aib]SW[d(αMeD)][Ala(pyrimidin-5-yl)]Q[NMeDab]G[dProc3CH24Pal] (lactam (positions not given here); also: macrolactam, ring places not given here) [SEQ ID NO: 235]

>  <Units of measure>
pM

>  <MRC5 IC50>
18

$$$$
>  <Binder>
cyclo([Bip(4'-COOH)][Ala(1-bicyclo(1.1.1)pentyl)][Phe(4-COOH)]G[Pro(cis-4-F)][Trp(βS-Me,4-F)][Aib]EW[αMeK][Ala(morpholin-4-yl)]Q[Dab]G[dPro(4R-Bzl(4-F))]) (ring closure inferred) [SEQ ID NO: 165]

>  <Units of measure>
pM

>  <MRC5 IC50>
22

$$$$

For this binder ( [Phe(4-(5-CO2H-2-pyrimidyl))][4Pal][Phe(4-COOH)]G[cisHyp][Trp(βS-Me,4-F)][Aib]SW[Aib][Ala(pyrimidin-5-yl)]Q[Dab]G[dPro(4R-(4-pyridylmethyl))] (lactam (positions not given here); also: macrolactam ring, closure sites not given here) [SEQ ID NO: 197] ), measured MRC5 IC50 is 36

For this binder ( cyclo([Bip(4'-COOH)][4Pal][Phe(4-COOH)]G[Pro(cis-4-F)][Trp(βS-Me,4-F)][Aib][aIle]W[αMeK][Ala(pyrimidin-5-yl)]Q[Dab]G[dPro(4R-Bzl(4-F))]) (ring closure inferred; not fully specified (bridges); printed as Bip4CO2H-4Pal-Phe4COOH-G-Proc4F-SbMeW4F-Aib-alI-W-aMeK-PyrimAla-Q-Dab-G-dProc4Bn4F) [SEQ ID NO: 136] ), measured MRC5 IC50 is 27
